System: ATP;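 further: ATP exposure 15 min at 22 °C before imaging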
protocol.notes: switch fluorescence ratio, 500 uM ATP over buffer (Cy3 cluster intensity, sum of 5 cycles each) (fold (ratio)); higher = stronger signal-on switching upon ATP binding; sequences stand for … in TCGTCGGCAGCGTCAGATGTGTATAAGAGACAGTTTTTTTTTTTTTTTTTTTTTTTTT…TC
test.parameters: aptamer strand: ATP DNA aptamer (quencher-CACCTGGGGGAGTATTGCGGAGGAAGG + anchor), 100 nM annealed; ATP concentration: 500 uM
value.type: switch fluorescence ratio
Respond with the number and no other words.

Name the reported switch fluorescence ratio value associated with the sequence TTGTTGATGC
1.14

For the sequence AACCAGTTTT , what switch fluorescence ratio is on record?
0.98

Name the reported switch fluorescence ratio value associated with the sequence TGGTGGGCGA
1.04

Consider the sequence AGCTTCGTTT and give its measured switch fluorescence ratio.
1

Param item = TTAAAGGGAT ; retrieve measured switch fluorescence ratio.
1.1

Others:
Which switch fluorescence ratio is listed for TATCATCCGG ?
0.985

So what does the record say about switch fluorescence ratio for TATTGATAAA ?
0.991

Any idea what switch fluorescence ratio was measured for GTTTTAGGTT ?
0.993

What value of measured switch fluorescence ratio is listed for ACAGTCTGCG ?
0.962

Need switch fluorescence ratio, item CATAAAGAGT
0.996

Dear colleague, I am looking for the recorded switch fluorescence ratio of the following sequence: CCGATGAGCT
1.42

====

System: ATP;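 further: ATP exposure 15 min at 22 °C before imaging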
protocol.notes: switch fluorescence ratio, 500 uM ATP over buffer (Cy3 cluster intensity, sum of 5 cycles each) (fold (ratio)); higher = stronger signal-on switching upon ATP binding; sequences stand for … in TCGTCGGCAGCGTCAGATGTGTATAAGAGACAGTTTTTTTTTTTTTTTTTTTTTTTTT…TC
test.parameters: aptamer strand: ATP DNA aptamer (quencher-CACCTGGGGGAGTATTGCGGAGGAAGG + anchor), 100 nM annealed; ATP concentration: 500 uM
Form field: switch fluorescence ratio (one value per entry).
Give only the figure.

I have this sequence here, GTTGGGTAGT , and I need its recorded switch fluorescence ratio.
0.996

For the sequence shown here, GGAAAGGTTT , give the reported switch fluorescence ratio.
1.01

What switch fluorescence ratio value was documented for this sequence, CTCCGGTTTG ?
2.03

Look at this sequence and give its reported switch fluorescence ratio. AGGACAGGTG
1.33

Reported switch fluorescence ratio, sequence ATATAGATTG : ____
1.03

We now examine a further sequence.
Entry GCATTGGTAC : reported switch fluorescence ratio = ?
1.17

====

Tested on: ATP;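 further: ATP exposure 15 min at 22 °C before imaging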
protocol.notes: switch fluorescence ratio, 500 uM ATP over buffer (Cy3 cluster intensity, sum of 5 cycles each) (fold (ratio)); higher = stronger signal-on switching upon ATP binding; sequences stand for … in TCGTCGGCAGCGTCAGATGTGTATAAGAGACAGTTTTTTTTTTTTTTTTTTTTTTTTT…TC
test.parameters: aptamer strand: ATP DNA aptamer (quencher-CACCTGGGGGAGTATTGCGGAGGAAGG + anchor), 100 nM annealed; ATP concentration: 500 uM
Property: switch fluorescence ratio; scope: individual sequences
Enter the number alone.

These solved cases illustrate the format of a correct answer.
Report switch fluorescence ratio for ATTATTGGGA please.
1

Would you kindly share the measured switch fluorescence ratio for GGTGGTGGCT ?
1.04

Looking for the measured switch fluorescence ratio of AATGGCTGTG , can you help?
0.972

Next:
// lookup switch fluorescence ratio for TTTTCTTTGG
1.03

Which measured switch fluorescence ratio value corresponds to ACCGGAGAGC ?
1.1

For the sequence TTTTTTAGAC , what switch fluorescence ratio is on record?
1.04

Please give the measured switch fluorescence ratio for this sequence: TGAGAAAGGT
0.965

# input sequence: CTATTATTCT ; wanted: its switch fluorescence ratio
0.983
